study.target: T1, huIL-17RA-FLAG-polyHis (human, UniProt Q96F46 33-320)
T1 construct: also called IL-17RA-FLAG-pHis; wild-type IL-17RA
procedure.summary: binning; IL-17RA held by bead mAb M
Listed binders paired with reported normalized MFI
Output spec: single numeric token, no unit.

binder: AMH11/AML11 (antibody, IgG2, V domains shown, human mAb from IgG2 XenoMouse mice; also called AM-11; antibody A) VH: QVQLVESGGGVVQPGRSLRLSCATSGITFSSYGMHWVRQAPGKGLEWVAVIWYDGSNKYYADSVKGRFTISRDNSKNTLYLQMNSLRAEDTAVYYCARDTKDYWGQGTLVTVSS VL: EIVMTQSPATLSVSPGERATLSCRASQSVSSNLAWYQQKPGQAPRLLIYGASTRAAGIPARFSGGGSGTAFTLTISNLQSEDFAVYYCQHYINWPKWTFGQGTKVDIK
normalized MFI: 1860
//
binder: AMH20/AML20 (antibody, IgG2, V domains shown, human mAb from IgG2 XenoMouse mice; also called AM-20; antibody R) VH: EVQLVESGGGLVQPGGSLRLSCAASGFTFSSYSMNWVRQAPGKGLEWVSFISARSSTIYYADSVKGRFTISRDNAKNSLYLQMNSLRDEDTAVYYCARPKVGGGMDVWGQGTTVTVSS VL: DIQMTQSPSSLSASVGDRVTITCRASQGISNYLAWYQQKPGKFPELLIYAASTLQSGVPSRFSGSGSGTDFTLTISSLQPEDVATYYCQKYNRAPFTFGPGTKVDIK
normalized MFI: 24

QUERY: Would you kindly share the measured normalized MFI for AMH10/AML10 (antibody, IgG2, V domains shown, human mAb from IgG2 XenoMouse mice; also called AM-10; antibody F) VH: QVQLQESGPGLVKPSQTLSLTCTVSGGSISSGGYYWSWIRQHPGKGLEWIGYIYFSGSAYYNPSLKSRVAISVDTSKNQFSLKLSSVTAADTAVYYCAREYYDSSGYPDAFDIWGQGTMVTVSS VL: DIQMTQSPSSVSASVGDRVTITCRASQGIRSWLAWYQQKPGKAPKLLIFAASSLQSGVPSRFSGSGSGTEFTLTISSLQPEDFATYYCQQANNFPRTFGQGTKVEIK ?
RESULT: 1020
